From: patent US20200405696A1

Target: Recombinant full-length human IDO1 (Homo sapiens, UniProt P14902)
Construct: Recombinant full-length human IDO1 with a N-terminal hexahistidine tag; hexahistidine (His6) (N); made in house; host or cells: E. coli
Sequence (P14902 whole entry): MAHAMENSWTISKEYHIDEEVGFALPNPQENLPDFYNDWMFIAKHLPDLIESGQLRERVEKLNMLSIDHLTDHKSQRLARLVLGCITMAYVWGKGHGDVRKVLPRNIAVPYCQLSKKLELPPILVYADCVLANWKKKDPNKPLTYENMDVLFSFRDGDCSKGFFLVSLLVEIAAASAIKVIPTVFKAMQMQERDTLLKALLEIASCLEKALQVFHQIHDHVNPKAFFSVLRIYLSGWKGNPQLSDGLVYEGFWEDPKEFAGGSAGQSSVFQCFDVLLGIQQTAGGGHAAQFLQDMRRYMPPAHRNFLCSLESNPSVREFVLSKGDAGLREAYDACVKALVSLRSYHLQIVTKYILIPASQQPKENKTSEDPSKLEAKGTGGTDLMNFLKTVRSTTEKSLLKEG
Experiment: IDO1 enzymatic assay (NFK quantified by LCMS)
Format: biochemical
Details: 2 nM enzyme, 5 μM L-tryptophan, pH6.5, 30 minutes pre-incubation at RT; mean values when measured multiple times; read-out: hIDO activity (IC50 in nM)
Procedure: 1) Testing Compounds for IDO Inhibitory Activity in an IDO1 Enzymatic Assay: Recombinant full-length human IDO1 with a N-terminal hexahistidine tag expressed in E. coli and purified to homogeneity is incubated at a final concentration of 2 nM in assay buffer consisting of 37.5 mM phosphate buffer at pH6.5 supplemented with 10 mM ascorbic acid, 0.45 μM methylene blue, 50U/ml catalase, 0.01% BSA, and 0.01% Tween 20 (protocol modified from Seegers et al, JBS 2014). […]
Measured quantity: IC50 (nM)

Example results:
Compound: CC1(COc2ccc(-n3cc(C(O)c4c(C5CC5)sc5cncn45)nn3)cc2)COC1 (racemic)
Measured: 11.2

Compound: O=[N+]([O-])c1cc(-n2cc(C(O)c3c(-c4ccccc4)sc4cncn34)nn2)ccc1O (racemic)
Measured: 23.8

Compound: COc1ccc(-n2cc(C(O)c3c(C4CC4)sc4cncn34)cn2)cn1 (racemic)
Measured: 164

Compound: CCc1sc2cncn2c1C(O)c1cn(-c2ccc(S(=O)(=O)N(C)C)cc2)nn1 (racemic)
Measured: 66

Compound: OC(c1cn(-c2ccc(OCC3COC3)cc2)nn1)c1c(C2CC2)sc2cncn12 (racemic)
Measured: 12.6

Compound: Cc1cccc(-n2cc(C(O)c3c(C4CC4)sc4cncn34)nn2)c1 (racemic)
Measured: 28.8

Compound: OC(c1cn(-c2ccc(OCC3CCCCO3)cc2)nn1)c1c(C2CC2)sc2cncn12 (stereo not shown)
Measured: 18.1

Compound: CCc1cc(-n2cc(C(O)c3c(C4CC4)sc4cncn34)nn2)ccc1O (racemic)
Measured: 40.1

Compound: CCc1sc2cncn2c1C(O)c1cn(-c2cccc(C#N)c2)nn1 (racemic)
Measured: 37.1

Compound: Cc1ccccc1-n1cc(C(O)c2c(C3CC3)sc3cncn23)nn1 (racemic)
Measured: 49.2

A. Oc1ccc(-n2cc(C(O)c3c(C4CC4)sc4cncn34)nn2)cc1C(F)(F)F (racemic)
B. OCCCOc1ccc(-n2cc([C@H](O)c3c(C4CC4)sc4cncn34)nn2)cc1 [Example 137a]
C. OCc1ccc(-n2cc(C(O)c3c(C4CC4)sc4cncn34)nn2)cc1 (racemic)
D. CC(C)(O)CCOc1ccc(-n2cc(C(O)c3c(C4CC4)sc4cncn34)nn2)cc1 (racemic)
E. CCN(C)C(=O)c1ccc(-n2cc(C(O)c3c(C4CC4)sc4cncn34)nn2)cc1 (racemic)
Ask: Order the records by IC50, with each subsequent value no larger than the one before. Show the ranking through the labels, in the order asked for.
Result: E, C, A, D, B
(E: 109 nM, C: 50.1 nM, A: 22.1 nM, D: 8.46 nM, B: 4.09 nM)
